src = patent US9597407B2

Tested on: microorganisms
Measurement notes: Morphology, biofilm and growth disruption by peptides (Table 5)
Format: cell-based
Parameters: key: A: Peptide aggregates; B: Less hyphal formation; Clumps; Diffuse clumps and small polyps; F: Diffuse growth; H: Thin; I: Growth inhibition; Microcolony formation; Rippled; Small polyps; Thick; W: Halo formation on top, microlonies on bottom
Measurement parameters: S. pneumoniae
Readout kind: Organism, effect (morphology, biofilm and growth disruption)

PF-745 (Peptide with targeting and/or antimicrobial activity) chain 1: ANSQNSLFSNRSSFKSIFDKKSNITTNATTPNSNIIIN chain 2: ANSQNSLFSNRSSFKSIFDKKSNITTNATTPNSNIIIN | S. pneumoniae (C)
PF-748 (Peptide with targeting and/or antimicrobial activity) chain 1: FQGFFDVAVNKWWEEHNKAKLWKNVKGKFLEGEGEEEDDE chain 2: FQGFFDVAVNKWWEEHNKAKLWKNVKGKFLEGEGEEEDDE | S. pneumoniae (H)
PF-761 (Peptide with targeting and/or antimicrobial activity) chain 1: SKFELVNYASGCSCGADCKCASETECKCASKK chain 2: SKFELVNYASGCSCGADCKCASETECKCASKK | S. pneumoniae (C)
PF-763 (Peptide with targeting and/or antimicrobial activity) chain 1: GIWMARNYFHRSSIRKVYVESDKEYERVHPMQKIQYEGNYKSQ chain 2: GIWMARNYFHRSSIRKVYVESDKEYERVHPMQKIQYEGNYKSQ | S. pneumoniae (C)

Provide only the value of recorded Organism, effect (morphology, biofilm and growth disruption) for PF-749 (Peptide with targeting and/or antimicrobial activity) chain 1: GVNKWWEEHNKAKLWKNVKGKFLEGEGEEEDDE chain 2: GVNKWWEEHNKAKLWKNVKGKFLEGEGEEEDDE S. pneumoniae (H)
